Where do the numbers come from? From patent US20110263610A1.

Target: ITPKb (Mus musculus, UniProt B2RXC2)
Construct: murine ITPKb residues 640-942; MGSDKIHHHHHH (His6 tag from MH4 plasmid) (N); made in house; host or cells: Escherichia coli HK100
Sequence (B2RXC2 640-942): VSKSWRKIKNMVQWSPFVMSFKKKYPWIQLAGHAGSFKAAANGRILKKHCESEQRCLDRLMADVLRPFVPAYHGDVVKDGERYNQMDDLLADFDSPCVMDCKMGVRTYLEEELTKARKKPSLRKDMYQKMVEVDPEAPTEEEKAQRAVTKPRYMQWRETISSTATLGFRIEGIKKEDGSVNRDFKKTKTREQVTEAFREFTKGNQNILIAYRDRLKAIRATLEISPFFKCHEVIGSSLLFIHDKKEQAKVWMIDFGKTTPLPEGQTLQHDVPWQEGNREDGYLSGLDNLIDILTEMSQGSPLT
Test: Biochemical measurement of ITPKb activity (Kinase-Glo ATP depletion assay); inhibiting the phosphorylation of IP3 to IP4
Set-up: species or system murine
Settings: read-out: IC50 in inhibiting the phosphorylation of IP3 to IP4
Property: log10 of IC50 (log10 of the value in nM)
Form field - Quantity: IC50; Unit: nM; Scale: log10

C[C@@H]1CN(Cc2c[nH]nc2-c2c[nH]c(C#N)c2)CCN1c1ccc(C(F)(F)F)cn1; 0.78
CNC(=O)c1c[nH]c(-c2n[nH]cc2CN2CCN(c3ccc(C(F)(F)F)cn3)[C@H](C)C2)c1; 1.04
C[C@@H]1CN(Cc2c[nH]nc2-c2cc(C(N)=O)c[nH]2)CCN1c1ccc(C(F)(F)F)cn1; 0.48

// batch mode: one log10 of IC50 value per listed entry
1. C[C@@H]1CN(Cc2c[nH]nc2-c2cc(C#N)c[nH]2)CCN1c1ccc(C(F)(F)F)cn1
2. C[C@@H]1CN(Cc2c[nH]nc2-c2ccc(C#N)[nH]2)CCN1c1ccc(C(F)(F)F)cn1
3. C[C@@H]1CN(Cc2c[nH]nc2-c2c[nH]c(C(N)=O)c2)CCN1c1ccc(C(F)(F)F)cn1
4. C[C@@H]1CN(Cc2c[nH]nc2-c2ccc(C(N)=O)[nH]2)CCN1c1ccc(C(F)(F)F)cn1

0.95
1.91
0.30
1.45
